Exercise: state measured PBM binding z-score for each of the sequences provided.
- Tested on: PPARa:RXRa (NR concentration 270 nM, RXRa partner concentration 90 nM)
- testName: PBM binding z-score (relative to random genomic background probes); higher = stronger binding; sequences stand for … in GC…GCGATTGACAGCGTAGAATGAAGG
Numbers only.

Would you please look over these solved cases?
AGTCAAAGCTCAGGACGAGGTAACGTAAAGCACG :: -0.301
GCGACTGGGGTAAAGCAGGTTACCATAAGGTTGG :: 1.66
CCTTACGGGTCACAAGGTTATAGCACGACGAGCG :: 5.46
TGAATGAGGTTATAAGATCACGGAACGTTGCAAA :: 3.21
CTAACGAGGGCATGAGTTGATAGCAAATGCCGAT :: 1.54

Report PBM binding z-score for every entry below.
1. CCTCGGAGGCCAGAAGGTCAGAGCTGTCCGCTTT
2. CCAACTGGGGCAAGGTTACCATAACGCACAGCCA
3. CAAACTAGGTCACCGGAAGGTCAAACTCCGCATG
4. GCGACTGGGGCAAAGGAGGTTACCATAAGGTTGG
5. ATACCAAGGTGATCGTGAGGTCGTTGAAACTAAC
6. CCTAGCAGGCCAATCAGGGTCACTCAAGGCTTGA
7. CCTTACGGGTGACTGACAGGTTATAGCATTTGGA

Result:
1.97
2.49
6.19
2.06
2.03
3.63
1.2
